assay_text: RP, Waters ACQUITY UPLC BEH C18, 100 × 2.1 mm, 1.7 µm, 0.3 mL/min, estimated dead time 0.73 min; A: water + 0.1% formic acid, pH 3; B: methanol + 0.1% formic acid, pH 3; gradient (min/%B) 0/10 14/90 16/90 18/10
condition_parameters: stereoisomer not certain
Returns Satisfied if the recorded LC retention time is greater than or equal to 7 min, and Not satisfied otherwise.

These solved cases illustrate the format of a correct answer.
* COc1ccc(NS(=O)(=O)c2ccc(N)cc2)nn1 [Sulfamethoxypyridazine] | Not satisfied
* COC(=O)C(C)Oc1ccc(Oc2ncc(C(F)(F)F)cc2Cl)cc1 (configuration not stated) [Haloxyfop-methyl] | Satisfied
* CC(C)(C)NCC(O)c1cc(Br)c(N)c(Br)c1 (configuration not stated) [Brombuterol] | Not satisfied
* CC(=O)Nc1ccc(S(=O)(=O)Nc2ccc([N+](=O)[O-])cc2)cc1 [Sulfanitran] | Satisfied
* Cc1c(Nc2ncccc2C(=O)O)cccc1C(F)(F)F [Flunixin] | Satisfied
* CC(C)c1ncc([N+](=O)[O-])n1C [Ipronidazole (IPZ)] | Not satisfied

Exercise: Quick check, LC retention time >= 7 min? CCC(=C(CC)c1ccc(O)cc1)c1ccc(O)cc1 [Diethylstilbestrol]
Solution: Satisfied

Exercise: I'd appreciate it if you could say whether CS(=O)(=O)c1ccc(C(=O)C2C(=O)CCCC2=O)c([N+](=O)[O-])c1 [Mesotrione] has LC retention time at least equal to 7 min.
Solution: Not satisfied

Exercise: Does LC retention time meet or surpass 7 min for CCS(=O)CCSP(=O)(OC)OC (configuration not stated) [Oxydemeton-methyl] ?
Solution: Not satisfied

Exercise: Does the compound CCCSP(=O)(OCC)Oc1cnn(-c2ccc(Cl)cc2)c1 (configuration not stated) [Pyraclofos] have recorded LC retention time that is 7 min or more?
Solution: Satisfied

Exercise: Dear colleague, could you confirm whether CCOP(=S)(OCC)Oc1ccc(=O)n(-c2ccccc2)n1 [Pyridaphenthion] has LC retention time at or above 7 min?
Solution: Satisfied

Exercise: Is the recorded value of LC retention time equal to or greater than 7 min for this compound? COC(=O)C1C2CC3c4[nH]c5cc(OC)ccc5c4CCN3CC2CC(OC(=O)c2cc(OC)c(OC)c(OC)c2)C1OC (configuration not stated) [Reserpine]
Solution: Satisfied

Exercise: # bool: LC retention time of COP(=O)(OC)Oc1ccc(SC)c(C)c1 [Fenthion oxon] >= 7 min
Solution: Satisfied

Exercise: Form field: LC retention time at least 7 min? Entry: CC(C)Nc1nc(N)nc(Cl)n1 [Deetheylatrazine]
Solution: Not satisfied

Exercise: Assess whether reported LC retention time for Nc1ccc(S(=O)(=O)Nc2ncccn2)cc1 [Sulfadiazine] sits at 7 min or higher.
Solution: Not satisfied

Exercise: Would you say CON=C(C(=O)NC1C(=O)N2C(C(=O)O)=C(COC(C)=O)CSC12)c1csc(N)n1 (configuration not stated) [Cefotaxime] shows LC retention time at minimum 7 min?
Solution: Not satisfied

Ref: the RepoRT retention time repository (doi:10.1016/j.scitotenv.2015.08.078)
